Listed compounds paired with reported melting point

INSERT INTO results (compound, recorded_measurement) VALUES
  ('CCOC(=O)c1cc(NCc2c(C)cccc2C)c2nc(C)n(OC)c2c1', '165 to 166 °C'),
  ('CCOC(=O)c1cc(OCc2ccccc2)c2nc(C3CC3)n(C)c2c1', '120 °C'),
  ('Cc1nc2c(N[C@@H]3c4ccccc4C[C@H]3O)cc(C(=O)N(C)C)cc2n1C (relative stereo)', '219 to 221 °C'),
  ('CCOC(=O)c1cc(NCc2c(C)cccc2C)c2nc(C)n(C)c2c1', '190 °C'),
  ('CCN(CCOC)C(=O)c1cc(O[C@@H]2c3ccccc3C[C@H]2O)c2nc(C)n(C)c2c1.O=C(O)C(=O)O (relative stereo)', '141 °C'),
  ('CCc1cccc(C)c1CNc1cc(C(=O)N(C)C)cc2c1nc(C)n2COCc1ccccc1.O=C(O)C(=O)O', '168 to 169 °C'),
  ('Cc1ccc(C)c2c1C[C@@H](O)[C@@H]2Oc1cc(C(=O)N(C)C)cc2c1nc(C)n2C (relative stereo)', '134 °C'),
  ('Cc1cccc(C)c1CNc1cc(C2=NCCN2C)cc2c1nc(C)n2C', '118 to 119 °C'),
  ('Cc1nc2c(O[C@@H]3c4ccccc4C[C@H]3O)cc(C(=O)O)cc2n1C (relative stereo)', '306 °C'),
  ('Cc1cccc(C)c1CNc1cc(C(=O)NCCO)cc2c1nc(C)n2C', '259 to 260 °C');

// query Which melting point is reported for this compound? Cc1cccc(C)c1CNc1cc(CO)cc2c1nc(C)n2C
// result 245 to 246 °C

// query // repeat for Cc1nc2c(NCc3c(C)cccc3C)cc(C(=O)N(C)C)cc2[nH]1 and report
// result 203 °C

// query // repeat for Cc1cccc(C)c1CNc1cc(C2=NCCN2)cc2c1nc(C)n2C and report
// result 273 to 274 °C

* * *

Listed molecules paired with reported melting point

INSERT INTO results (molecule, recorded_measurement) VALUES
  ('CCc1cccc(C)c1CNc1cc(C(=O)N(C)C)cc2c1ncn2C.Cl', '183 to 184 °C');

// query Which melting point is reported for this molecule? CCc1cccc(C)c1CNc1cc(C(=O)N2CCOCC2)cc2c1nc(C)n2C
// result 229 to 231 °C

// query // repeat for Cc1cccc(C)c1CNc1cc(C(N)=O)cc2c1nc(C)n2C and report
// result 272 °C

* * *

Listed molecules paired with reported melting point

// query Which melting point is reported for this molecule? CC(=O)OCc1nc2c(NCc3c(C)cccc3C)cc(Br)cc2n1C
// result 188 to 190 °C

// query // repeat for Cc1nc2c(O[C@H]3c4ccccc4C[C@@H]3O)cc(C(=O)N(C)C)cc2n1C.O=C(O)C(=O)O and report
// result 126 to 127 °C

// query // repeat for COC(=O)Nc1cccc(C)c1CNc1cc(C(=O)N(C)C)cc2c1nc(C)n2C and report
// result 193 to 195 °C

// query // repeat for Cc1cccc(C)c1COc1cc(C(=O)N(C)C)cc2c1nc(C)n2C and report
// result 180 °C

// query // repeat for Cc1cccc(C)c1CNc1cc(C(=O)O)cc2c1nc(C)n2C and report
// result 315 to 318 °C
